FYI, the data here is from patent US20240391923A1.

Test: Pharmacokinetic test in mice (IV and PO)
Type: in vivo
Settings: mouse, plasma; BALB/c mice, IV 2 mg/kg; read-out: Vz
Each entry below carries its recorded Vd.
Kindly provide the numeric value in L/kg only, without the unit symbol.

Here is how some compounds turned out for Vd.
• O=c1c2nn(C(F)F)cc2c2ccc(C(F)(F)F)nc2n1-c1cccc2[nH]ncc12 = 0.3
• Cc1ncccc1-n1c(=O)c2nn(C)cc2c2ccc(C(F)(F)F)nc21 (single isomer, unassigned) = 0.4
• CCn1cc2c(n1)c(=O)n(-c1cccnc1)c1nc(C(F)(F)F)ccc21 = 1.3

query: Fill in reported Vd for this entry: Cn1cc2c(n1)c(=O)n(-c1cccc3[nH]ncc13)c1cc(Cl)ccc21
result: 0.6
